Each entry below lists one item and its recorded fraction unbound at 16 h, 1 µM value.
# experiment: Fraction unbound in CD1 mouse plasma at 1 uM incubated for 16 hrs by LC-MS/MS based equilibrium dialysis method
# Type: ADME, cell-free
Note: the reply should be a number with no unit written.

The recorded fraction unbound at 16 h, 1 µM for entry O=C1Cc2cc(C(=O)N[C@H]3C[C@H]4CC[C@@H](C3)N4S(=O)(=O)N3CCC(NCc4ccccc4)CC3)c(Cl)cc2N1 equals 0.32

Others:
The recorded fraction unbound at 16 h, 1 µM for entry O=C1Cc2cc(C(=O)N[C@H]3C[C@H]4CC[C@@H](C3)N4S(=O)(=O)CC3CCN(CCCC(F)(F)F)CC3)c(Cl)cc2N1 equals 0.53
